Answer each item with its documented Activity.
- system_tested: E3 ubiquitin-protein ligase Mdm2/Histone deacetylase 1 (Homo sapiens) (UniProt Q00987+Q13547)
- Sequence (Q00987 whole entry, looked up): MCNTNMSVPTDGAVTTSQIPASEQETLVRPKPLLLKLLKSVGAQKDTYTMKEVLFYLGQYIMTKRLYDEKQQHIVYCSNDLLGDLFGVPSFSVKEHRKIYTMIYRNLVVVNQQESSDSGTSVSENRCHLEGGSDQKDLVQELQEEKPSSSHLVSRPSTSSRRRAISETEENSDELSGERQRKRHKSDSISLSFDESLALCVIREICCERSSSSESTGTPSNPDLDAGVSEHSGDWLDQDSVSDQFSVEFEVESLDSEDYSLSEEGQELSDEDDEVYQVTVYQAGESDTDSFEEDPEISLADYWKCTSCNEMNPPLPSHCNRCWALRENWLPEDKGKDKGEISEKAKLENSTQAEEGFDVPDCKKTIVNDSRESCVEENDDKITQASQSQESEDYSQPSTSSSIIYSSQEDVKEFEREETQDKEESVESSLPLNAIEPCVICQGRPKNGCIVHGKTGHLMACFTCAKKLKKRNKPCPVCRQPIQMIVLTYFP
- Sequence (Q13547 whole entry, looked up): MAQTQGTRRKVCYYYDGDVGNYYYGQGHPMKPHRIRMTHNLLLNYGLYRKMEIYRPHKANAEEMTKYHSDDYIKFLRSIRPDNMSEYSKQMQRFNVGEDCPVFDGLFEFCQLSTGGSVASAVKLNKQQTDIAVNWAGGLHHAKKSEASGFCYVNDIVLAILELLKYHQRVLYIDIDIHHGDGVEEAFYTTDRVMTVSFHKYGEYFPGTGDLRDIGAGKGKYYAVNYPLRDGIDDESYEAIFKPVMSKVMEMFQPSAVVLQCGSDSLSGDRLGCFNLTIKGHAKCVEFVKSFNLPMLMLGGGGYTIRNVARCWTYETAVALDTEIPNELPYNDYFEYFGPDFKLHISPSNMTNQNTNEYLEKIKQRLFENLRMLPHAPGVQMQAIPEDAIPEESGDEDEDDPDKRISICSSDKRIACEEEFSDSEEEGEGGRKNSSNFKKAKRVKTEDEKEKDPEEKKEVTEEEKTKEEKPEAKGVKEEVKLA
- protocol_details: PROTAC activity at MDM2/HDAC1 in human HCT-116 cells assessed as decrease in HDAC1 abundance by measuring remaining activity at 1 uM measured after 24 hrs by Western blot analysis (reference value: 100%)
- Format: cell-based
Numbers only, in %.

Hey, quick one: what's Activity for each of these?
1. COc1cc(C(=O)NCCOCCOCCOCCOCCC(=O)Nc2ccc(C(=O)Nc3ccccc3N)cc2)ccc1NC(=O)[C@@H]1N[C@@H](CC(C)(C)C)[C@](C#N)(c2ccc(Cl)cc2F)[C@H]1c1cccc(Cl)c1F
2. COc1cc(C(=O)NCCCCCCCCCCCC(=O)Nc2ccc(C(=O)Nc3ccccc3N)cc2)ccc1NC(=O)[C@@H]1N[C@@H](CC(C)(C)C)[C@](C#N)(c2ccc(Cl)cc2F)[C@H]1c1cccc(Cl)c1F
3. COc1cc(C(=O)NCCCCCCCC(=O)Nc2ccc(C(=O)Nc3ccccc3N)cc2)ccc1NC(=O)[C@@H]1N[C@@H](CC(C)(C)C)[C@](C#N)(c2ccc(Cl)cc2F)[C@H]1c1cccc(Cl)c1F
4. COc1cc(C(=O)NCCOCCOCCOCCC(=O)Nc2ccc(C(=O)Nc3ccccc3N)cc2)ccc1NC(=O)[C@@H]1N[C@@H](CC(C)(C)C)[C@](C#N)(c2ccc(Cl)cc2F)[C@H]1c1cccc(Cl)c1F

Completion:
1: 43; 2: 103; 3: 88; 4: 85

* * *

- system_tested: E3 ubiquitin-protein ligase Mdm2/Histone deacetylase 2 (Homo sapiens) (UniProt Q00987+Q92769)
- Sequence (Q00987 whole entry, looked up): as the sequence (Q00987 whole entry, looked up) above
- Sequence (Q92769 whole entry, looked up): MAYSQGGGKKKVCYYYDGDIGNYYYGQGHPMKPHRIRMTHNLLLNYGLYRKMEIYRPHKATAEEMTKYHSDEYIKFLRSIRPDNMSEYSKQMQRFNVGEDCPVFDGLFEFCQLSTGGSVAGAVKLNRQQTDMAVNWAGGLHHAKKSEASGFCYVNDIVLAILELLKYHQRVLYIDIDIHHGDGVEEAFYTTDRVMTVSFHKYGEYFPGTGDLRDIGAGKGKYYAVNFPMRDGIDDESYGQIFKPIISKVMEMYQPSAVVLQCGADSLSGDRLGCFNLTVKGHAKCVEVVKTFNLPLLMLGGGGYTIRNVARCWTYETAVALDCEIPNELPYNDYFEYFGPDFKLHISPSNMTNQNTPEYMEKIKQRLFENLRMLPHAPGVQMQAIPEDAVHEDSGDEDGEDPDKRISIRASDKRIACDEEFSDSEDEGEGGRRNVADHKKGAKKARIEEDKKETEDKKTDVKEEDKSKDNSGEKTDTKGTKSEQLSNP
- protocol_details: PROTAC activity at MDM2/HDAC2 in human HCT-116 cells assessed as decrease in HDAC2 abundance by measuring remaining activity at 0.1 uM measured after 24 hrs by Western blot analysis (reference value: 100%)
- Type: cell-based
parameter: Activity

Activity measured on COc1cc(C(=O)NCCCCCCCCCCCC(=O)Nc2ccc(C(=O)Nc3ccccc3N)cc2)ccc1NC(=O)[C@@H]1N[C@@H](CC(C)(C)C)[C@](C#N)(c2ccc(Cl)cc2F)[C@H]1c1cccc(Cl)c1F = 100%

The following compounds each have a reported value; give each one's Activity.
1. COc1cc(C(=O)NCCCCCCCC(=O)Nc2ccc(C(=O)Nc3ccccc3N)cc2)ccc1NC(=O)[C@@H]1N[C@@H](CC(C)(C)C)[C@](C#N)(c2ccc(Cl)cc2F)[C@H]1c1cccc(Cl)c1F
2. COc1cc(C(=O)NCCOCCOCCOCCOCCC(=O)Nc2ccc(C(=O)Nc3ccccc3N)cc2)ccc1NC(=O)[C@@H]1N[C@@H](CC(C)(C)C)[C@](C#N)(c2ccc(Cl)cc2F)[C@H]1c1cccc(Cl)c1F

Completion:
1: 100%; 2: 92%

Lab note: measured Activity of COc1cc(C(=O)NCCOCCOCCOCCC(=O)Nc2ccc(C(=O)Nc3ccccc3N)cc2)ccc1NC(=O)[C@@H]1N[C@@H](CC(C)(C)C)[C@](C#N)(c2ccc(Cl)cc2F)[C@H]1c1cccc(Cl)c1F was 102%

* * *

What Activity was measured for each of the following?
- system_tested: E3 ubiquitin-protein ligase Mdm2/Histone deacetylase 2 (Homo sapiens) (UniProt Q00987+Q92769)
- protocol_details: PROTAC activity at MDM2/HDAC2 in human HCT-116 cells assessed as decrease in HDAC2 abundance by measuring remaining activity at 10 uM measured after 24 hrs by Western blot analysis (reference value: 100%)
- Format: cell-based
One number for each entry, in %.

// known answers, use as guide
Entry COc1cc(C(=O)NCCCCCCCC(=O)Nc2ccc(C(=O)Nc3ccccc3N)cc2)ccc1NC(=O)[C@@H]1N[C@@H](CC(C)(C)C)[C@](C#N)(c2ccc(Cl)cc2F)[C@H]1c1cccc(Cl)c1F , Activity reported as 100

Briefly, Activity measured for COc1cc(C(=O)NCCCCCCCCCCCC(=O)Nc2ccc(C(=O)Nc3ccccc3N)cc2)ccc1NC(=O)[C@@H]1N[C@@H](CC(C)(C)C)[C@](C#N)(c2ccc(Cl)cc2F)[C@H]1c1cccc(Cl)c1F : 103

Take each entry in turn and give its Activity.
1. COc1cc(C(=O)NCCOCCOCCOCCC(=O)Nc2ccc(C(=O)Nc3ccccc3N)cc2)ccc1NC(=O)[C@@H]1N[C@@H](CC(C)(C)C)[C@](C#N)(c2ccc(Cl)cc2F)[C@H]1c1cccc(Cl)c1F
2. COc1cc(C(=O)NCCOCCOCCOCCOCCC(=O)Nc2ccc(C(=O)Nc3ccccc3N)cc2)ccc1NC(=O)[C@@H]1N[C@@H](CC(C)(C)C)[C@](C#N)(c2ccc(Cl)cc2F)[C@H]1c1cccc(Cl)c1F

Completion:
84
54

These entries and their values trace back to ChEMBL document CHEMBL5357024.
